As shown below, each of these sequences has a reported Fold enrichment over AAV9 in the brain of Mice (C57Bl/6) value.
System: brain
Test: NGS fold enrichment of synthetic library (passage 3) in C57Bl/6 mice, first cross-species screen
Type: in vivo
Conditions: synthetic library passage 3, intravenous, RNA from brain of C57Bl/6 mice, NGS, relative to wild-type AAV9
Quick note: give the figure in fold, leave out the unit.

Consider the following illustrative entries.
| primarySequence | measuredNumber |
| --- | --- |
| GSGQNSGVHFNQQT | 0.871 |
| GSGQNQQPSAFSKT | 1.309 |
| GSGQNQQTSVSQQT | 1.030 |

The sequence GSGQLVLTLQNQQT showed Fold enrichment over AAV9 in the brain of Mice (C57Bl/6) equal to 0.336

The sequence GSGQNQQSHLRTNT showed Fold enrichment over AAV9 in the brain of Mice (C57Bl/6) equal to 1.022

The sequence GSGQNPIRGAMQQT showed Fold enrichment over AAV9 in the brain of Mice (C57Bl/6) equal to 1.296

The sequence GSGQNQHSLPAHRT showed Fold enrichment over AAV9 in the brain of Mice (C57Bl/6) equal to 0.911

The sequence GSGQNQQVAGLNNT showed Fold enrichment over AAV9 in the brain of Mice (C57Bl/6) equal to 0.449

The sequence GSGLALERSQNQQT showed Fold enrichment over AAV9 in the brain of Mice (C57Bl/6) equal to 0.618

The sequence GSLMDVHRGQNQQT showed Fold enrichment over AAV9 in the brain of Mice (C57Bl/6) equal to 1.009

The sequence GSGSVGFIGQNQQT showed Fold enrichment over AAV9 in the brain of Mice (C57Bl/6) equal to 0.689

The sequence GNSSMMGSGQNQQT showed Fold enrichment over AAV9 in the brain of Mice (C57Bl/6) equal to 0.656

The sequence GSGQTRMPLANQQT showed Fold enrichment over AAV9 in the brain of Mice (C57Bl/6) equal to 0.447

The sequence GSGQNQQTTAATRM showed Fold enrichment over AAV9 in the brain of Mice (C57Bl/6) equal to 0.947

The sequence GSGTHLVSLQNQQT showed Fold enrichment over AAV9 in the brain of Mice (C57Bl/6) equal to 0.715

###

As shown below, each of these sequences has a reported Fold Enrichment relative to AAV9, Brain (Mouse) value.
System: brain
Test: Matured TTM-001 and TTM-002 variants, NGS enrichment in mouse brain
Format: in vivo, mice
Details: NGS fold-enrichment, mouse brain, relative to AAV9 control
Quick note: give the figure in fold, leave out the unit.

The sequence TTINGSGSPHSKAQNQQT (peptide inserted in AAV capsid) showed Fold Enrichment relative to AAV9, Brain (Mouse) equal to 72.058

The sequence KTVNGSGSPHSKAQNQLI showed Fold Enrichment relative to AAV9, Brain (Mouse) equal to 71.156

The sequence KAINGHDNPHKSGQNQQT showed Fold Enrichment relative to AAV9, Brain (Mouse) equal to 9.702

###

System: brains, heart, liver, muscle, and DRG of the NHPs
Assay: Maturation of TTM-001 and TTM-002 capsids, NGS enrichment in NHP tissues
Format: in vivo
Settings: NHP liver DNA; NGS; relative to AAV9 control
As shown below, each of these sequences has a reported Fold Enrichment relative to AAV9, Liver DNA (NHP) value.
Quick note: give the figure in fold, leave out the unit.

Consider the following illustrative entries.
| primarySequence | measuredNumber |
| --- | --- |
| KTINGSGSPHSKAQMQIT | 0.371 |
| KTINGSGSPHSFRYNQQT | 4.148 |
| KTINGSGSPHSVRYNQQT | 1.413 |
| KTMQRSGSPHSKAQNQQT | 3.159 |
| KTINGSGSPHRIKQNQQT | 3.064 |

Would you kindly look at the next entry?
The sequence KTINGSGSPHSKAFYIQT showed Fold Enrichment relative to AAV9, Liver DNA (NHP) equal to 0.239
